target.or.test.system: BRM (Homo sapiens, UniProt P51531)
Construct: In-Cell Western Screen of BRM Degradation in SW1573 Cells; endogenous in cells; host or cells: SW1573
Sequence (P51531 whole entry): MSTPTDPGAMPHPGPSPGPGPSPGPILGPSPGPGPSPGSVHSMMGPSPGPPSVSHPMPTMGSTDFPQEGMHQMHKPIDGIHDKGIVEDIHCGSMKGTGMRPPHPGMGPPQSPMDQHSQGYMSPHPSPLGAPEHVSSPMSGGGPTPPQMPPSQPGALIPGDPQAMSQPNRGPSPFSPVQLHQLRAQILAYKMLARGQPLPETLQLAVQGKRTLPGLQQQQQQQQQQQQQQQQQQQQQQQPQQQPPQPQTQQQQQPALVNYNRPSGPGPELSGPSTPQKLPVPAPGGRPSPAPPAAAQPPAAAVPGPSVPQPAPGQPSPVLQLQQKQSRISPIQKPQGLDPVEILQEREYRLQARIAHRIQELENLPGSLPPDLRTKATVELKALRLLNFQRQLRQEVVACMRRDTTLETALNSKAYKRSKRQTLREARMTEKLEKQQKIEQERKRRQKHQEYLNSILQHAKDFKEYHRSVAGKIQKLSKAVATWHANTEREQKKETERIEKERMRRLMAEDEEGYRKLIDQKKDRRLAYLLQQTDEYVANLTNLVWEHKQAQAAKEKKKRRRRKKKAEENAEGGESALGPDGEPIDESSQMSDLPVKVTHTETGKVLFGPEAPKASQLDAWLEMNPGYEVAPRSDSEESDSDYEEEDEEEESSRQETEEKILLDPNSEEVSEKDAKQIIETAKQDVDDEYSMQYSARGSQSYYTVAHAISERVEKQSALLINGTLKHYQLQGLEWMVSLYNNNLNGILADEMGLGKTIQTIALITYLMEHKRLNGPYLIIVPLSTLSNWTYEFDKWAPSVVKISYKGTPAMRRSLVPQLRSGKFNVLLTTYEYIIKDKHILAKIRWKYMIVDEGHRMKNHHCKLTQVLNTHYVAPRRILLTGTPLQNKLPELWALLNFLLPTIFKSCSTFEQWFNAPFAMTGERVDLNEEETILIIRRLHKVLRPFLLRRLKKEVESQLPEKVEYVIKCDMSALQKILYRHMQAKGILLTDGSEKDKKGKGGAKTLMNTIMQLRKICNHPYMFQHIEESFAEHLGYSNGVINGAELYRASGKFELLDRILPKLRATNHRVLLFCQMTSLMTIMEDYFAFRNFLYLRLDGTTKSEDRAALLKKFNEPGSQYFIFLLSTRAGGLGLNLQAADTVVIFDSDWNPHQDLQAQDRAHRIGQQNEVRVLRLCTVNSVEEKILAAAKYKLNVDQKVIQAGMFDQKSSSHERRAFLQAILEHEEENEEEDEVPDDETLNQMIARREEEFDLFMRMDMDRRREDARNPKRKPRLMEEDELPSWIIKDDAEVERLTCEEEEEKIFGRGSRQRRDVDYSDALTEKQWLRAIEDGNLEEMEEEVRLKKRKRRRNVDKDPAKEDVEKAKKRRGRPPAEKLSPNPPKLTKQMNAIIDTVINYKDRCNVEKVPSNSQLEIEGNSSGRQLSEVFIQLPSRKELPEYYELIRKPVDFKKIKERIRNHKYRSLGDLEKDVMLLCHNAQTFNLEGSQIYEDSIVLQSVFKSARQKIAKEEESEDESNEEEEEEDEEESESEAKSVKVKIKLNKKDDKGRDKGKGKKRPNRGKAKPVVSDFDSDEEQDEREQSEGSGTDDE
test: In-cell Western screen of BRM degradation in SW1573 cells (Dmax and DC50)
Assay type: cell-based
test.settings: BRM degradation, SW1573 cells; read-out: DC50
measured.quantity: DC50

Some solved entries appear below for comparison.
molecule: Cc1nccn1-c1ccc([C@H](C)NC(=O)[C@@H]2C[C@@H](O)CN2C(=O)[C@H](c2cc(OC/C=C/c3ccc(O[C@H]4C[C@H](Oc5cc(N6C7CCC6CN(c6cc(-c8ccccc8O)nnc6N)C7)ccn5)C4)cn3)no2)C(C)C)cc1
DC50: > 30 nM

molecule: Cc1ncsc1-c1ccc(CNC(=O)[C@@H]2C[C@@H](O)CN2C(=O)[C@@H](NC(=O)CN2CCN(CCOCCOCCCc3cc(N4C5CCC4CN(c4cc(-c6ccccc6O)nnc4N)C5)ccn3)CC2)C(C)(C)C)cc1
DC50: > 30 nM

molecule: Cc1ncsc1-c1ccc([C@H](C)NC(=O)[C@H]2C[C@H](O)CN2C(=O)C(c2cc(OCCN3CCC(O[C@H]4C[C@H](Oc5cc(N6C7CCC6CN(c6cc(-c8ccccc8O)nnc6N)C7)ccn5)C4)CC3)no2)C(C)C)cn1 (stereo partly shown)
DC50: > 30 nM

molecule: Cc1ncsc1-c1ccc([C@@H](NC(=O)[C@@H]2C[C@@H](O)CN2C(=O)[C@H](c2cc(OCCN3CCN(CCOc4cc(N5C6CCC5CN(c5cc(-c7ccccc7O)nnc5N)C6)ccn4)CC3)no2)C(C)C)C(=O)N(C)C)cc1
DC50: > 30 nM

BRM (Homo sapiens, UniProt P51531) data for CC(C)[C@@H](C(=O)N1C[C@H](O)C[C@H]1C(=O)N[C@@H](C)c1ccc(-n2ccnc2CO)cc1)c1cc(OCC#Cc2ccc(O[C@H]3C[C@H](Oc4cc(N5C6CCC5CN(c5cc(-c7ccccc7O)nnc5N)C6)ccn4)C3)cn2)no1 ; its DC50: < 2.5 nM

###

Property: DC50; scope: individual compounds
target.or.test.system: BRM (Homo sapiens, UniProt P51531)
Construct: In-Cell Western Screen of BRM Degradation in SW1573 Cells; endogenous in cells; host or cells: SW1573
test: In-cell Western screen of BRM degradation in SW1573 cells (Dmax and DC50)
Type: cell-based
test.settings: BRM degradation, SW1573 cells; read-out: DC50

Lab book: DC50 of Cc1ncsc1-c1ccc([C@H](CN(C)C)NC(=O)[C@@H]2C[C@@H](O)CN2C(=O)[C@H](c2cc(OCCN3CCN(CCOc4cc(N5C6CCC5CN(c5cc(-c7ccccc7O)nnc5N)C6)ccn4)CC3)no2)C(C)C)cc1 noted as > 30 nM

// DC50 lookup, compound = Cc1ncsc1-c1ccc([C@H](C)NC(=O)[C@@H]2C[C@@H](O)CN2C(=O)[C@H](c2cc(OCC(=O)N3CCC(O[C@H]4C[C@H](Oc5cc(N6C7CCC6CN(c6cc(-c8ccccc8O)nnc6N)C7)ccn5)C4)CC3)no2)C(C)C)cn1 , result: > 30 nM

Memo: Cc1ncsc1-c1ccc([C@H](C)NC(=O)[C@@H]2C[C@@H](O)CN2C(=O)[C@H](c2cc(N3CCN(C(C)[C@H]4C[C@H](Oc5cc(N6C7CCC6CN(c6cc(-c8ccccc8O)nnc6N)C7)ccn5)C4)CC3)no2)C(C)C)cc1 (some centres unmarked) , reported DC50: 2.5 to 10 nM

According to the records, this compound Cc1ncsc1-c1ccc([C@H](C)NC(=O)[C@@H]2C[C@@H](O)CN2C(=O)[C@@H](c2cc(OCCN3CC[C@@H](O[C@H]4C[C@H](Oc5cc(N6C7CCC6CN(c6cc(-c8ccccc8O)nnc6N)C7)ccn5)C4)C[C@H]3C)no2)C(C)C)cc1 (single isomer, unassigned) displays DC50 of < 2.5 nM

// DC50 value for Cc1ncsc1-c1ccc([C@H](C)NC(=O)[C@@H]2C[C@@H](O)CN2C(=O)[C@H](c2cc(N3CCC(CN4CCC(O[C@H]5C[C@H](Oc6cc(N7C8CCC7CN(c7cc(-c9ccccc9O)nnc7N)C8)ccn6)C5)CC4)CC3)no2)C(C)C)c(O)c1 : > 30 nM
